target: UniProtKB O00311; test: Caliper, Mobility shift assay off-chip; conditions: compound 0.2 µM
Sequence (O00311 whole entry, looked up): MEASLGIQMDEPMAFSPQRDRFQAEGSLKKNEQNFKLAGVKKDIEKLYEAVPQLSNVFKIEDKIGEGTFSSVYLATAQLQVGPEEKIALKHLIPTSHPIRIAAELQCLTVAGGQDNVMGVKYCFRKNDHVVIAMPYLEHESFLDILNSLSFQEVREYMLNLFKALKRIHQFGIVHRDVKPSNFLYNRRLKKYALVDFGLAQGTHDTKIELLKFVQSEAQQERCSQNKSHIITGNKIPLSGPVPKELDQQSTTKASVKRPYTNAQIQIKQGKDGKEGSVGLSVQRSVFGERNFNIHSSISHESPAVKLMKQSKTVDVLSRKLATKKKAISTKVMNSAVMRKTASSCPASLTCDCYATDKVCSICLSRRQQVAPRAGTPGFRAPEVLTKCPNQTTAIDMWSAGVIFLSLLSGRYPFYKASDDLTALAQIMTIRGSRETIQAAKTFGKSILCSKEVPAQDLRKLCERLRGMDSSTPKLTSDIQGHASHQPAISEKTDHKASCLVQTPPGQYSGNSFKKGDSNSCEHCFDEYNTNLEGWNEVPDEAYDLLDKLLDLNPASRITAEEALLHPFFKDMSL
Attribute Measured: inhibition (%)
The reply should contain only the number, in %.

A selection of reference data follows.
Smiles Notation	Unit Symbol	inhibition
COc1cc2c(Oc3ccc4[nH]c(C)cc4c3F)ncnc2cc1OCCCN1CCCC1	%	-0.7
CCN(CC)CCNC(=O)c1c(C)[nH]c(/C=C2\C(=O)Nc3ccc(F)cc32)c1C	%	0.9
CNC(=O)c1cc(Oc2ccc(NC(=O)Nc3ccc(Cl)c(C(F)(F)F)c3)cc2)ccn1	%	-4.2

Now, please, on to the next compound.
Query inhibition on UniProtKB O00311 for Cc1ccc(Nc2nccc(N(C)c3ccc4c(C)n(C)nc4c3)n2)cc1S(N)(=O)=O
-3.3

The values you see were collected from the kinase profiling compilation of Christmann-Franck et al. (2016).
